System: NCI-H226 lung
experiment_summary: NCI-60 one-dose screen, 48 h (100 = growth as untreated, 0 = no growth, -100 = all killed)
experimental_conditions: 10 µM unless noted
Experimental: Growth inhibition of the NCI-H226 human Non-Small Cell Lung tumor cell line is measured as a screen for anti-cancer activity. Cells are grown in 96 well plates and exposed to the test compound for 48 hours. Compounds are tested at a single concentration, which is 10^-5 M for most compounds. The reported endpoint is percent growth (GI% or GIPRCNT), where numbers from 0 - 100% represent growth inhibition, and numbers from -100% - 0 represent cell death. […]
About 83,000 compounds went through this panel and 20% of them were active in at least one assay; those are over-represented in the sample as a whole.
Values of growth greater than or equal to 90% map to Satisfied; values below map to Not satisfied.

Answered cases to consult:
Cc1cccc(Oc2ccc(Nc3ncnc4ccc(NC(=O)CN5CCN(C)CC5)cc34)cc2Cl)c1    Not satisfied
COc1ccc(C2CC(c3cc(OC)c(OC)c(OC)c3)=NO2)cc1OCCCCOc1cc2c(cc1OC)C(=O)N1CCC[C@H]1C=N2 (some centres not stated)    Not satisfied

In plain terms: is recorded growth at least 90% for `CCOC(=O)c1c(C)nc2c(c1N)/C(=C/c1ccc(OC)cc1)C(=O)N2Cc1ccccc1` ? Not satisfied

In plain terms: is recorded growth at least 90% for `O=C(Cn1nnc2ccccc21)N/N=C/c1c[nH]c2ccccc12` ? Not satisfied

In plain terms: is recorded growth at least 90% for CN(C)CCCC1(c2ccc(F)cc2)OCc2cc(-c3cc4ccccc4s3)ccc21 (configuration not stated) ? Not satisfied

In plain terms: is recorded growth at least 90% for `CN1CCN(CCOc2ccc(-c3cnc4c(-c5cccc(F)c5F)cnn4c3)cc2)CC1` ? Satisfied

In plain terms: is recorded growth at least 90% for `CO[C@H]1CC(=O)n2c3ccccc3c3c4c(c5c6ccccc6n1c5c32)C(=O)NC4=O` ? Not satisfied

In plain terms: is recorded growth at least 90% for `O=C(N/N=C/c1cc(Cl)ccc1O)c1ccccc1Nc1ccnc(C(F)(F)F)c1` ? Not satisfied

In plain terms: is recorded growth at least 90% for `O=C(Nc1ncc(Cc2ccccc2)s1)c1ccc2c(c1)OCCCO2` ? Not satisfied

In plain terms: is recorded growth at least 90% for `C=CN(C(=O)N1CCN(c2cc3c(cc2F)c(=O)c(C(=O)O)cn3C2CC2)CC1)c1nc(-c2ccc(OC)cc2)cs1` ? Not satisfied

In plain terms: is recorded growth at least 90% for `CC(=O)Oc1ccc(OC(C)=O)c2ccccc12` ? Not satisfied

* * *

System: NCI-H226 lung
experiment_summary: NCI-60 one-dose screen, 48 h
experimental_conditions: 10 µM unless noted
Method: Growth inhibition of the NCI-H226 human Non-Small Cell Lung tumor cell line is measured as a screen for anti-cancer activity. Cells are grown in 96 well plates and exposed to the test compound for 48 hours. Compounds are tested at a single concentration, which is 10^-5 M for most compounds. The reported endpoint is percent growth (GI% or GIPRCNT), where numbers from 0 - 100% represent growth inhibition, and numbers from -100% - 0 represent cell death. […]
Compounds without any hit were thinned out: in the full panel of roughly 83,000, 20% have a hit. The source made the active and inactive calls. The calls were made as follows: active = growth percent below 10; inactive = the rest.
A correct response names exactly one class from YES (active), NO (inactive)

Answered cases to consult:
CCOC(=O)CC1CSC(Nc2ccccc2)=N1 (stereo not given)    NO
CCOC(=O)c1nn(CC(O)c2ccccc2)c(NC(=O)Nc2cccc(F)c2)c1C (stereo not given)    NO
CCn1c(-c2cc3c([nH]c4ccccc43)c(-c3cccc(O)c3)n2)n[nH]c1=S    NO

Recorded call for `CCN(CC)CCCN1C(=O)c2c(c(C)c3c(oc4ccc(O)cc43)c2C)C1=O` ? YES

Recorded call for O=C(NC(Cc1nnc2n(Cc3ccccc3)c(=O)c3c4c(sc3n12)CCCC4)c1ccccc1)c1ccccc1 (stereo not given) ? NO

Recorded call for `CC(=O)c1ccc(Nc2nccc(-c3ccc4ccccc4c3)n2)cc1` ? NO

Recorded call for `CCOC(=O)C(Cc1ccc(OC)cc1)C(=O)OCC` ? NO

Source of measurements: PubChem BioAssay (NCI)
